Biological target: human uPAR (uPAR-Fc) (Homo sapiens, UniProt Q03405)
Construct: comprising amino acids Leu23-Arg303 according to UniProt entry Q03405.1; purchased R&D Systems 10378-UK-100
Sequence (Q03405 23-303): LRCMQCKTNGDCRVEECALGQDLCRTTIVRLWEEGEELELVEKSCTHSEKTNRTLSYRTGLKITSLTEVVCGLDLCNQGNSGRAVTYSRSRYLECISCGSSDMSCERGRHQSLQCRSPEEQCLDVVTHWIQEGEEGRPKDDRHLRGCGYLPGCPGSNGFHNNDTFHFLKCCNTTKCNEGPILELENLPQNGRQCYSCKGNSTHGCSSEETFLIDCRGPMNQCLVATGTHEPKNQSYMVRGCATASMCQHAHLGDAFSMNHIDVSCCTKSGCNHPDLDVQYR
Experiment: Surface plasmon resonance (SPR) assay, single cycle kinetics
Type: binding
Conditions: pKD category for uPAR SPR activity assay; uPAR-Fc on Protein A-Chip, 25°C; read-out: pKD CAT (converted)
Where a SMILES comes first, the peptide text is derived from it. Bridges are numbered along the chain shown (N, C = ends). [ ]: non-standard residue; d: D form. The star is where a group is joined. DOTA = O=C(O)CN1CCN(CC(=O)O)CCN(CC(=O)*)CCN(CC(=O)O)CC1; Hyp = O=C(O)[C@@H]1C[C@@H](O)CN1; Pentanoyl(4-Me) = CC(C)CCC(=O)*; 2Thi = N[C@@H](Cc1cccs1)C(=O)O; Cit = NC(=O)NCCC[C@H](N)C(=O)O; Butoxycarbonyl = CCCCOC(=O)*; Nva = CCC[C@H](N)C(=O)O
# Kd values compiled below

CC[C@H](C)[C@@H]1NC(=O)[C@@H](C)NC(=O)[C@H](C)NC(=O)[C@H](Cc2ccccc2)NC(=O)[C@H](Cc2ccc(O)cc2)NC(=O)[C@H](CCC(N)=O)NC(=O)[C@H](CCCNC(N)=O)NC(=O)[C@@H](NC(=O)CCC(C)C)CSSC[C@@H](C(N)=O)NC(=O)[C@H](CC(C)C)NC1=O [UPAR-319] ({Pentanoyl(4-Me)}-C[Cit]QYFA[dA]ILC-NH2; disulfide 1-10) ... 10 to 100 nM

API: the following record is the query input.
Any idea what Kd was measured for CCCCOC(=O)N[C@H]1CSSC[C@@H](C(N)=O)NC(=O)[C@H](CCC)NC(=O)[C@H]([C@@H](C)CC)NC(=O)[C@@H]2C[C@@H](O)CN2C(=O)[C@@H]2CCCN2C(=O)[C@H](Cc2cccs2)NC(=O)[C@H](Cc2ccc(O)cc2)NC(=O)[C@H](CCCCNC(=O)CN2CCN(CC(=O)O)CCN(CC(=O)O)CCN(CC(=O)O)CC2)NC(=O)[C@H]([C@@H](C)O)NC1=O [UPAR-134] (Butoxycarbonyl-CTK(DOTA)Y[2Thi]P[Hyp]I[Nva]C-NH2; disulfide 1-10) ?
< 1.58 nM

###

Biological target: uPAR-expressing HEC-265 human endometrial adenocarcinoma cells (Homo sapiens, UniProt Q03405)
Sequence (Q03405 23-335): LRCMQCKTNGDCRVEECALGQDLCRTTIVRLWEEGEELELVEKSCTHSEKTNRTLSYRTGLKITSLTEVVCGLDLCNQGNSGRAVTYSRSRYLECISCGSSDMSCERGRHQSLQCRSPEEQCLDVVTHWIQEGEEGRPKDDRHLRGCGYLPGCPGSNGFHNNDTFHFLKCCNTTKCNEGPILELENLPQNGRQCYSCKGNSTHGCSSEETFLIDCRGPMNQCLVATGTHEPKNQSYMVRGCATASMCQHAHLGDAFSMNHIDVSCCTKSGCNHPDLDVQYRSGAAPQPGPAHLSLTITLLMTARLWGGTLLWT
pIC50: −log10 of the molar value. *1 amine or outer side, *2 acyl side, *3 side chain or, on linkers, in order; H or OH if unused. Where a SMILES comes first, the peptide text is derived from it. Bridges are numbered along the chain shown (N, C = ends). [ ]: non-standard residue; d: D form. The star is where a group is joined. DOTA = O=C(O)CN1CCN(CC(=O)O)CCN(CC(=O)*)CCN(CC(=O)O)CC1; Hyp = O=C(O)[C@@H]1C[C@@H](O)CN1; Cysteamide = C(CS[*:3])N[*:1]; Nle = CCCC[C@H](N)C(=O)O; Api = NC1(C(=O)O)CCNCC1; Nva = CCC[C@H](N)C(=O)O; Pentanoyl = CCCCC(=O)*
pIC50 overview

Solved entries:
CCCC[C@@H]1NC(=O)[C@H](CCCNC(=N)N)NC(=O)[C@H](NC(=O)[C@H](CC(C)C)NC(=O)[C@H](CC(=O)O)NC(C)=O)CSSC[C@@H](C(N)=O)NC(=O)[C@H](CC(C)C)NC(=O)[C@H]([C@@H](C)CC)NC(=O)[C@H](C)NC(=O)[C@@H]2CCCN2C(=O)[C@H](Cc2ccccc2)NC(=O)[C@H](Cc2ccc(O)cc2)NC1=O [UPAR-412] (Ac-DL[dC]R[Nle]YFPAILC-NH2; disulfide 3-12) ... ≤ 6.90
CCCCC(=O)N[C@H]1CSSCCNC(=O)[C@H](CCC)NC(=O)[C@H]([C@@H](C)CC)NC(=O)[C@@H]2C[C@@H](O)CN2C(=O)[C@@H]2CCCN2C(=O)[C@H](Cc2ccccc2)NC(=O)[C@H](Cc2ccc(O)cc2)NC(=O)[C@H](CCC(N)=O)NC(=O)[C@H](CCCNC(=N)N)NC1=O [UPAR-481] (Pentanoyl-CRQYFP[Hyp]I[Nva]-Cysteamide; disulfide 1-C) ... ≥ 8.00

Consider the additional compound presented here.
What does the record list as pIC50 for CCCCC(=O)N[C@H]1CSSC[C@@H](C(N)=O)NC(=O)[C@H](CCC)NC(=O)[C@H]([C@@H](C)CC)NC(=O)[C@@H]2C[C@@H](O)CN2C(=O)[C@@H]2CCCN2C(=O)[C@H](Cc2ccccc2)NC(=O)[C@H](Cc2ccc(O)cc2)NC(=O)C2(CCN(C(=O)CN3CCN(CC(=O)O)CCN(CC(=O)O)CCN(CC(=O)O)CC3)CC2)NC(=O)[C@H]([C@@H](C)O)NC1=O [UPAR-288] (Pentanoyl-CT[Api](DOTA)YFP[Hyp]I[Nva]C-NH2; disulfide 1-10) ?
≥ 8.00
